assay.procedure: gradient 5% acetonitrile 3 min, to 50% in 2 min, to 85% in 15 min, held 3 min, 100 µL/min
experimental.parameters: column: Zorbax Extend-C18 2.1 x 50 mm; eluents: water / acetonitrile, 0.1% formic acid
Outcome label depends on RP-LC retention time relative to 700 s: at/above gives Condition met, below gives Condition not met.

(Q) Does the reported RP-LC retention time for COC(=O)Nc1ccc2c(c1)C(=O)N(C)CCO2 fall at or above the 700 s mark?
(A) Condition not met

(Q) Consider next the compound Cc1nnc2ccc(N3CCCC3)nn12 in the same way.
(A) Condition met

(Q) Consider next the compound Cc1ccc(NC(=O)c2cc3c(s2)CN(C2CCCC2)C3)c(C)c1 in the same way.
(A) Condition not met

(Q) Consider next the compound CN1CCN(CCNC(=O)c2ccc3c(c2)nnn3Cc2ccc(F)cc2)CC1 in the same way.
(A) Condition not met

(Q) Consider next the compound Cc1nc(N2CCN(c3ccccn3)CC2)c2c(C)c(C(=O)Nc3cc(F)ccc3C)sc2n1 in the same way.
(A) Condition met

(Q) Consider next the compound CC(=O)Nc1ccc(C(=O)NC2CCN(c3cc(-c4ccc(Cl)cc4)[nH]n3)C2)cc1 (stereo unspecified) in the same way.
(A) Condition not met

(Q) Consider next the compound O=C(CCC(=O)N1CC2CCCN2c2ccccc21)NCc1ccccn1 (stereo unspecified) in the same way.
(A) Condition not met

(Q) Consider next the compound CCOC(=O)c1ccc(NC(=O)c2ccccc2-c2ccccc2C(=O)O)cc1 in the same way.
(A) Condition met

(Q) Consider next the compound Cc1ccc(Cn2c(N3CCCC(C(=O)NCc4ccccc4)C3)nc3ccsc3c2=O)cc1 (stereo unspecified) in the same way.
(A) Condition met

(Q) Consider next the compound Cc1ccccc1NC(=O)N1CCC(c2nc(C(=O)N3CCOCC3)c(C)o2)CC1 in the same way.
(A) Condition not met

(Q) Consider next the compound Clc1cc(Br)ccc1-c1ccc(CNCc2cccnc2)o1 in the same way.
(A) Condition not met

(Q) Consider next the compound CCc1nc2cc(N3CCC(C(=O)Nc4ccc(OC)c(OC)c4)CC3)cnc2nc1CC in the same way.
(A) Condition met

(Q) Consider next the compound CCN(Cc1ccc(C)cc1)Cc1cc(=O)n2ccc(C)cc2n1 in the same way.
(A) Condition not met

(Q) Consider next the compound O=C(Cn1ncc2c(c1=O)N(C1CC1)C(=O)CS2)NC1CCCCC1 in the same way.
(A) Condition not met

(Q) Consider next the compound CC(=O)NNC(=O)N1Cc2ccccc2Oc2ccc(Cl)cc21 in the same way.
(A) Condition met

(Q) Consider next the compound CCc1cccc(NC(=O)Cn2nc(N3CCSCC3)c3ccccc3c2=O)c1 in the same way.
(A) Condition met

(Q) Consider next the compound Cn1c(=O)c(N2CCC(NC(=O)Nc3cccc(Cl)c3)CC2)nc2ccccc21 in the same way.
(A) Condition met

(Q) Consider next the compound CCN1CCn2c(nc3cc(C(=O)NCc4ccc(OC(C)C)cc4)ccc32)C1=O in the same way.
(A) Condition met

(Q) Consider next the compound Cc1ccc(S(=O)(=O)[C@H]2CS(=O)(=O)C[C@@H]2N2CCN(c3ccccc3F)CC2)cc1 in the same way.
(A) Condition met

(Q) Consider next the compound O=C(c1ccsc1)N1CCN(C(=O)c2cc(-c3ccccn3)n[nH]2)CC1 in the same way.
(A) Condition not met

(Q) Consider next the compound O=C(NCc1ccccc1F)c1cn(-c2cc(N3CCOCC3)ncn2)cn1 in the same way.
(A) Condition met

(Q) Consider next the compound Cc1cccc(CNS(=O)(=O)c2cn(CC(C)C)c3ncccc23)c1 in the same way.
(A) Condition met
